Measured values drawn from patent US10124004B2 for this set.

Target: CDK2/cyclin A2 (Homo sapiens, UniProt P24941)
Construct: purchased Carna Biosciences, Inc. QS S Assist CDK2/Cyclin A2_FP Kit
Assay: Human CDK2/cyclin A2 inhibitory activity (QS S Assist CDK2/Cyclin A2_FP Kit, IMAP fluorescence polarization)
Assay type: biochemical
Conditions: Human CDK2/cyclin A2 inhibitory activity; read-out: CDK2 Activity symbol
pIC50: −log10 of the molar value.
TEST_READOUT: pIC50

>  <COMPOUND>
CC(C)Nc1nc(C(F)F)cc2cnc(Nc3ccc(C4=CC(=O)NCC4)cn3)nc12 [Compound 203]

>  <EXPERIMENTAL_TARGET>
CDK2/cyclin A2 (Homo sapiens, UniProt P24941)

>  <TEST_READOUT>
pIC50

>  <RESULT>
7.00 to 8.00

$$$$
>  <COMPOUND>
CC(C)Nc1nc(C(C)O)cc2cnc(Nc3ccc(N4CCC(N(C)C)C(F)C4)nn3)nc12 (stereo not shown) [Compound 621]

>  <EXPERIMENTAL_TARGET>
CDK2/cyclin A2 (Homo sapiens, UniProt P24941)

>  <TEST_READOUT>
pIC50

>  <RESULT>
≤ 7.00

$$$$
>  <COMPOUND>
CC(C)Nc1nc(C(F)F)cc2cnc(Nc3ccc(OCCCN4CCCC4=O)cn3)nc12 [Compound 123]

>  <EXPERIMENTAL_TARGET>
CDK2/cyclin A2 (Homo sapiens, UniProt P24941)

>  <TEST_READOUT>
pIC50

>  <RESULT>
≤ 7.00

$$$$
>  <COMPOUND>
CC(C)Nc1nc(C(F)F)cc2cnc(Nc3ccc(N4CCNCC4)c(F)n3)nc12 [Compound 67]

>  <EXPERIMENTAL_TARGET>
CDK2/cyclin A2 (Homo sapiens, UniProt P24941)

>  <TEST_READOUT>
pIC50

>  <RESULT>
7.00 to 8.00

$$$$
>  <COMPOUND>
COCC(C)(C)Nc1nc([C@@H](C)O)cc2cnc(Nc3ccc(C(C)N4CCNCC4)cn3)nc12 (stereo partly shown) [Compound 265]

>  <EXPERIMENTAL_TARGET>
CDK2/cyclin A2 (Homo sapiens, UniProt P24941)

>  <TEST_READOUT>
pIC50

>  <RESULT>
≤ 7.00

$$$$
>  <COMPOUND>
COCC(C)(C)Nc1nc([C@@H](C)O)cc2cnc(Nc3ccc(CN4CCNCC4=O)cn3)nc12 [Compound 248]

>  <EXPERIMENTAL_TARGET>
CDK2/cyclin A2 (Homo sapiens, UniProt P24941)

>  <TEST_READOUT>
pIC50

>  <RESULT>
≤ 7.00

$$$$
>  <COMPOUND>
C[C@@H](O)c1cc2cnc(Nc3ccc(N4CCC(O)CC4)nn3)nc2c(N[C@H]2CCCOC2)n1 [Compound 595]

>  <EXPERIMENTAL_TARGET>
CDK2/cyclin A2 (Homo sapiens, UniProt P24941)

>  <TEST_READOUT>
pIC50

>  <RESULT>
≤ 7.00

$$$$
>  <COMPOUND>
CO[C@H](C)c1cc2cnc(Nc3ccc(N4CCNCC4)nn3)nc2c(NC(C)C)n1 [Compound 217]

>  <EXPERIMENTAL_TARGET>
CDK2/cyclin A2 (Homo sapiens, UniProt P24941)

>  <TEST_READOUT>
pIC50

>  <RESULT>
≤ 7.00

$$$$
>  <COMPOUND>
CC(C)Nc1nc(C(F)F)cc2cnc(Nc3ccc(CN4CCCC(O)C4)cn3)nc12 (stereo not shown) [Compound 128]

>  <EXPERIMENTAL_TARGET>
CDK2/cyclin A2 (Homo sapiens, UniProt P24941)

>  <TEST_READOUT>
pIC50

>  <RESULT>
7.00 to 8.00

$$$$
>  <COMPOUND>
CC(C)Nc1nc([C@@H](C)O)cc2cnc(Nc3ccc(CN4CCNC(=O)C4)cn3)nc12 [Compound 234]

>  <EXPERIMENTAL_TARGET>
CDK2/cyclin A2 (Homo sapiens, UniProt P24941)

>  <TEST_READOUT>
pIC50

>  <RESULT>
≤ 7.00

$$$$
>  <COMPOUND>
CNC1(C)CCN(c2ccc(Nc3ncc4cc([C@@H](C)O)nc(NC(C)C)c4n3)nn2)CC1 [Compound 601]

>  <EXPERIMENTAL_TARGET>
CDK2/cyclin A2 (Homo sapiens, UniProt P24941)

>  <TEST_READOUT>
pIC50

>  <RESULT>
≤ 7.00

$$$$
>  <COMPOUND>
CC(C)Nc1nc(C(F)F)cc2cnc(Nc3ccc(CCCC(=O)O)cn3)nc12 [Compound 136]

>  <EXPERIMENTAL_TARGET>
CDK2/cyclin A2 (Homo sapiens, UniProt P24941)

>  <TEST_READOUT>
pIC50

>  <RESULT>
≤ 7.00

$$$$
>  <COMPOUND>
CO[C@H](C)c1cc2cnc(Nc3ccc(CN4CCNCC4)cn3)nc2c(N[C@H]2CC[C@H](C(=O)O)CC2)n1 [Compound 343]

>  <EXPERIMENTAL_TARGET>
CDK2/cyclin A2 (Homo sapiens, UniProt P24941)

>  <TEST_READOUT>
pIC50

>  <RESULT>
≤ 7.00

$$$$
>  <COMPOUND>
COC(=O)CCc1ccc(Nc2ncc3cc(C(F)F)nc(NC(C)C)c3n2)nc1 [Compound 102]

>  <EXPERIMENTAL_TARGET>
CDK2/cyclin A2 (Homo sapiens, UniProt P24941)

>  <TEST_READOUT>
pIC50

>  <RESULT>
≤ 7.00

$$$$
>  <COMPOUND>
C[C@@H](O)c1cc2cnc(Nc3ccc(N4CCNCC4)nn3)nc2c(NC(C)(C)C(=O)O)n1 [Compound 315]

>  <EXPERIMENTAL_TARGET>
CDK2/cyclin A2 (Homo sapiens, UniProt P24941)

>  <TEST_READOUT>
pIC50

>  <RESULT>
≤ 7.00

$$$$
>  <COMPOUND>
CO[C@H](C)c1cc2cnc(Nc3ccc(N4CCNC5(CC5)C4)nn3)nc2c(N[C@H]2CCCOC2)n1 [Compound 376]

>  <EXPERIMENTAL_TARGET>
CDK2/cyclin A2 (Homo sapiens, UniProt P24941)

>  <TEST_READOUT>
pIC50

>  <RESULT>
≤ 7.00

$$$$
